# experiment.notes: in vivo
# Type: in vivo
# reported.conditions: mouse, in vivo, ip, qd days 1-7; read-out: maximum non-lethal dosage
experimental.readout: MTD (mg/kg)

compound="CCOC(=N)c1ncn([C@@H]2O[C@H](CO)[C@@H](O)[C@H]2O)n1 [Compound (5)]" test_value=288

---

# experiment.notes: in vivo
# Assay type: in vivo
# reported.conditions: mouse, in vivo, ip, qd day 1; read-out: maximum non-lethal dosage
experimental.readout: MTD (mg/kg)

compound="CCOC(=N)c1ncn([C@@H]2O[C@H](CO)[C@@H](O)[C@H]2O)n1 [Compound (5)]" experimental_readout=MTD test_value=1330
